Target: Ggly receptor on IMGE-5 cells
Assay: cell-based or functional assay
I'd appreciate it if you marked entries Fulfilled when ED50 (nM), proliferation of IMGE cells, thymidine uptake is lower than 0.9 nM and Not fulfilled when it is not.

Illustrative cases are given below, each with its answer.
binder: LEEEEEA [heptapeptide LE5A]
assigned category: Not fulfilled

binder: LEEEEEAYG [nonapeptide LE5AYG]
assigned category: Not fulfilled

binder: EEEEEAY [heptapeptide E5AY]
assigned category: Not fulfilled

We now examine a further binder.
Quick check: ED50 (nM), proliferation of IMGE cells, thymidine uptake of EEEEEA [hexapeptide E5A] under 0.9 nM?
Fulfilled
